- Assay Notes: S. cerevisiae growth modulation with rapamycin, primary screen, strain BY4716, OD600, 96 h (AID 1091); also: test concentration not given here
- Details: higher = more signal, called active from +8 up or from −8 down
Decision: z-score compared against -0.09; not below it gives Fulfilled, below it gives Not fulfilled.

{"Compound": "C=CC1=C[C@H](O)[C@@H]2O[C@@H]2C12OCCCO2", "Classification": "Not fulfilled"}
{"Compound": "COC(=O)[C@@H]1CC[C@H](C)[C@@H](c2ccc(C)cc2)N1C(=O)c1ccc(C=NO[C@H](C)c2cn([C@H](CO)Cc3ccccc3)nn2)cc1", "Classification": "Fulfilled"}
{"Compound": "COC(=O)C=CCCc1coc(C=CCNC(=O)OC)n1", "Classification": "Fulfilled"}
{"Compound": "CC=CC1=C(CO)C(=O)[C@@H]2O[C@@H]2C1=O", "Classification": "Not fulfilled"}
{"Compound": "COc1cccc([C@H]2Oc3ccc(OC)cc3C(=NOC[C@@H](O)[C@H]3O[C@@H]4OC(C)(C)O[C@@H]4[C@H]3O)[C@@H]2O)c1", "Classification": "Not fulfilled"}
{"Compound": "COc1cccc([C@H]2Oc3ccc(OC)cc3C(=NOC[C@@H](O)COCc3ccco3)[C@@H]2O)c1", "Classification": "Not fulfilled"}
{"Compound": "C=CC[C@@H]1C=C[C@H](ON=C(C)CCC(=O)OC[C@H]2O[C@H](C#Cc3ccccc3)C=C[C@@H]2Oc2ccc(C)cc2)[C@@H](CO)O1", "Classification": "Fulfilled"}
{"Compound": "COC(=O)C1=C(C)N(Cc2ccccc2)[C@]23O[C@](C(=O)OC)(C(=O)N2[C@@H]1c1ccccc1)C(C(=O)OC)=C3C(=O)OC", "Classification": "Not fulfilled"}
{"Compound": "CCCCC#C[C@@H]1C=C[C@H](OC(C)=O)[C@@H](COC(C)=O)O1", "Classification": "Not fulfilled"}
{"Compound": "CCOC(=O)[C@H](CC(C)C)NC(=O)CCC1CC(OC(=O)NCc2cccc3ccccc23)CC2(CCCC(COC(=O)NCc3ccncc3)O2)O1 (stereo partly specified)", "Classification": "Fulfilled"}
{"Compound": "CCOC(=O)NN=C1C[C@@H](O)[C@@H](O)[C@@H]2[C@@H]3C(=O)N(Cc4ccccc4)C(=O)[C@@H]3CC[C@H]12", "Classification": "Not fulfilled"}
{"Compound": "CC(CCN1CCCCc2nc(C)c(C)cc21)=NO[C@@H](C)c1cn([C@H](CO)Cc2ccccc2)nn1", "Classification": "Fulfilled"}
{"Compound": "COC(=O)[C@@H]1CC[C@H](C)[C@@H](c2ccc(C)cc2)N1C(=O)c1ccc(C=NOCC[C@@H]2C=C[C@H](OC(C)=O)[C@@H](COC(C)=O)O2)cc1", "Classification": "Fulfilled"}
{"Compound": "CCOC(=O)NN=C1C[C@@H](O)[C@@H](O)[C@@H]2[C@@H]3C(=O)N(c4cccc(Oc5ccccc5)c4)C(=O)[C@@H]3CC[C@H]12", "Classification": "Not fulfilled"}
{"Compound": "CO[C@@H]1COC(=O)[C@@H]2CCCN2C(=O)[C@@H](C)COC(=O)CC=C[C@H]1C", "Classification": "Not fulfilled"}
